// provenance: patent US20260241012A1

# testedOn: N-terminal HiBiT tagged BCL6 (Homo sapiens, UniProt P41182)
# Construct: expressed in transfected cells; host or cells: HT1080 (ATCC CCL-121), stably transduced with lentivirus pLV-UBC-N-HiBiT-BCL6-PGK-puro
# assayName: HiBiT based degradation assay
# Format: cell-based
# cond: HT1080 cells expressing N-terminal HiBiT tagged BCL6; 5 hours of incubation; BCL6 degradation normalized with DMSO control
readoutName: Ymin (5 hr)

The molecule identified as CNC(=O)COc1cc2cc(Nc3nc(N4CC5(CC(N(C)c6ccc7c(C8CCC(=O)NC8=O)nn(C)c7c6)C5)C4)ncc3Cl)cnc2n(C(C)C)c1=O (centres unmarked) [Compound 207] registered its Ymin (5 hr) at +++ (30% ≤ Ymin < 50%)

The molecule identified as CNC(=O)COc1cc2cc(Nc3nc(N4CCN(C(=O)N5CCC(c6ccc7c(C8CCC(=O)NC8=O)nn(C)c7c6)CC5)CC4)ncc3Cl)cnc2n(C(C)C)c1=O (centres unmarked) [Compound 220] registered its Ymin (5 hr) at +++ (30% ≤ Ymin < 50%)

The molecule identified as CNC(=O)COc1cc2cc(Nc3nc(N4CCN(C(=O)N5CCN(c6ccc7c(C8CCC(=O)NC8=O)nn(C)c7c6)CC5)CC4)ncc3Cl)cnc2n(C(C)C)c1=O (centres unmarked) [Compound 219] registered its Ymin (5 hr) at +++ (30% ≤ Ymin < 50%)
